Hey, just so you know, these numbers are from paper PMC7587356.

// values below are reported Replicate_2
target: SARS-CoV-2 3CLpro (Severe acute respiratory syndrome coronavirus 2); assay: biochemical; format: biochemical; set-up: unit not given here; conditions: sheet LOPAC_screen_w_protease; primary screen of LOPAC1280 at 5 µM with protease; replicate 2
// no unit, no text: just the number

Below: 3 compounds and their reported Replicate_2.
Problem: Read the entry CCCCCCCCCCCCCCCC(=O)NCC(COP(=O)([O-])OCC[N+](C)(C)C)OCC (racemic) and write its reported Replicate_2.
Result: -0.6245

Problem: Read the entry NC(CCCCCP(=O)(O)O)C(=O)O (racemic) [(±)-2-Amino-7-phosphonoheptanoic acid] and write its reported Replicate_2.
Result: 3.43

Problem: Read the entry COc1ccccc1CNCCCCCCNCCCCCCCCNCCCCCCNCc1ccccc1OC.Cl.Cl.Cl.Cl [Methoctramine tetrahydrochloride] and write its reported Replicate_2.
Result: 2.482

Turning now to a further compound:
Problem: Read the entry O=c1[nH]c(=O)n([C@H]2C[C@H](O)[C@@H](CO)O2)cc1/C=C/Br [(E)-5-(2-Bromovinyl)-2'-deoxyuridine] and write its reported Replicate_2.
Result: 4.161
